Method Description: Pharmacokinetics study in Sprague–Dawley rats
Assay type: in vivo
Run Conditions: Sprague-Dawley [Crl: CD (SD)], plasma; rat, 10 mg/kg po
Outcome Measure: half-life (h)

| Molecule | Units Of Measure | half-life |
| --- | --- | --- |
| COc1cc(N2CCC(N3CCN(CC4CN(c5ccc6c(c5)C(=O)N(C5CCC(=O)NC5=O)C6=O)C4)CC3)CC2)ccc1Nc1ncc(Cl)c(Nc2ccccc2P(C)(C)=O)n1 (stereo not drawn) | h | 7.7 |
| COc1cc(N2CCN(CC3CCN(c4ccc5c(c4)C(=O)N(C4CCC(=O)NC4=O)C5=O)CC3)CC2)ccc1Nc1ncc(Cl)c(Nc2ccccc2P(C)(C)=O)n1 (stereo not drawn) | h | 6.81 |
| COc1cc(N2CCC(N3CCN(CC4CCN(c5ccc6c(c5)C(=O)N(C5CCC(=O)NC5=O)C6=O)CC4)CC3)CC2)ccc1Nc1ncc(Cl)c(Nc2ccccc2P(C)(C)=O)n1 (stereo not drawn) | h | 8.32 |

---

Tested on: Ba/F3 CD74-ROS1 non mutant
Method Description: Antiproliferation assay (Alamar Blue, 72 h)
Type: cell-based, mouse
Run Conditions: Mus musculus, BaF3, 72 h, Ba/F3 cells, cell growth inhibition
Method: To assess targeted degradation of ROS1 fusion proteins, we first established a mouse pro-B cell line Ba/F3 as a model expressing the CD74-ROS1 oncogene or CD74-ROS1 with clinically observed secondary/tertiary mutations. […] To assess the 72 h effect of drug treatment on cell proliferation, 2000 to 3000 cells were plated in replicates of three in 96-well plates. […] Luminescence was measured on a multiplate reader and analyzed. […]
Outcome Measure: IC50 (nM)

| Compound | Units Of Measure | IC50 |
| --- | --- | --- |
| COc1cc(N2CCC(N3CCN(C(=O)CN4CCN(c5ccc(NC6CCC(=O)NC6=O)cc5)CC4)CC3)CC2)ccc1Nc1ncc(Cl)c(Nc2ccccc2P(C)(C)=O)n1 (stereo not drawn) [9s] | nM | 75 |

a = Cc1cc(Nc2ncc(Cl)c(Nc3ccccc3S(=O)(=O)C(C)C)n2)c(OC(C)C)cc1C1CCN(CCNc2ccc3c(c2)C(=O)N(C2CCC(=O)NC2=O)C3=O)CC1 (stereo not drawn) [8h]
b = COc1cc(N2CCC(N3CCN(C(=O)CC4CCN(c5ccc(NC6CCC(=O)NC6=O)cc5)CC4)CC3)CC2)ccc1Nc1ncc(Cl)c(Nc2ccccc2P(C)(C)=O)n1 (stereo not drawn) [9u]
Returns the identifier with the smallest measured IC50 among a and b . Please respond with the label that marks your chosen entry.
b
(b: 82 nM, a: 128 nM)

---

System: Ba/F3 CD74-ROS1 non mutant
Method Description: Antiproliferation assay (Alamar Blue, 72 h)
Assay type: cell-based, mouse
Run Conditions: Mus musculus, BaF3, 72 h, Ba/F3 cells, cell growth inhibition
Procedure: To assess targeted degradation of ROS1 fusion proteins, we first established a mouse pro-B cell line Ba/F3 as a model expressing the CD74-ROS1 oncogene or CD74-ROS1 with clinically observed secondary/tertiary mutations. […] To assess the 72 h effect of drug treatment on cell proliferation, 2000 to 3000 cells were plated in replicates of three in 96-well plates. […] Luminescence was measured on a multiplate reader and analyzed. […]
Outcome Measure: IC50 (nM)

Below: 3 compounds and their reported IC50.
| Compound | Assayed Target | Reported |
| --- | --- | --- |
| Cc1cc(Nc2ncc(Cl)c(Nc3ccccc3S(=O)(=O)C(C)C)n2)c(OC(C)C)cc1C1CCN(C2CCN(CC3CN(c4cccc5c4C(=O)N(C4CCC(=O)NC4=O)C5=O)C3)CC2)CC1 (stereo not drawn) | Ba/F3 CD74-ROS1 non mutant | 191 |
| C[C@@H](Oc1cc(-c2cnn(C3CCN(c4cccc5c4C(=O)N(C4CCC(=O)NC4=O)C5=O)CC3)c2)cnc1N)c1c(Cl)ccc(F)c1Cl (stereo partly drawn) | Ba/F3 CD74-ROS1 non mutant | 264 |
| Cc1cc(Nc2ncc(Cl)c(Nc3ccccc3S(=O)(=O)C(C)C)n2)c(OC(C)C)cc1C1CCN(CCCNc2ccc3c(c2)C(=O)N(C2CCC(=O)NC2=O)C3=O)CC1 (stereo not drawn) | Ba/F3 CD74-ROS1 non mutant | 93 |

1 = Cc1cc(Nc2ncc(Cl)c(Nc3ccccc3S(=O)(=O)C(C)C)n2)c(OC(C)C)cc1C1CCN(C2CCN(C3CN(c4cccc5c4C(=O)N(C4CCC(=O)NC4=O)C5=O)C3)CC2)CC1 (stereo not drawn)
2 = Cc1cc(Nc2ncc(Cl)c(Nc3ccccc3S(=O)(=O)C(C)C)n2)c(OC(C)C)cc1C1CCN(C2CN(CC3CCN(c4ccc5c(c4)C(=O)N(C4CCC(=O)NC4=O)C5=O)CC3)C2)CC1 (stereo not drawn)
API: POST /compare with 1 and 2 ; response names the item with higher IC50. Please respond with the label that marks your chosen entry.
1

I = Cc1cc(Nc2ncc(Cl)c(Nc3ccccc3S(=O)(=O)C(C)C)n2)c(OC(C)C)cc1C1CCN(C2CCN(CCCNc3ccc4c(c3)C(=O)N(C3CCC(=O)NC3=O)C4=O)CC2)CC1 (stereo not drawn)
II = COc1cc(N2CCC(N3CCN(C4CN(c5ccc6c(c5)C(=O)N(C5CCC(=O)NC5=O)C6=O)C4)CC3)CC2)ccc1Nc1ncc(Cl)c(Nc2ccccc2P(C)(C)=O)n1 (stereo not drawn)
API: POST /compare with I and II ; response names the item with higher IC50. Please respond with the label that marks your chosen entry.
I
(I: 598 nM, II: 61 nM)

1 = COc1cc(C2CCN(C3CCN(CC4CCN(c5ccc6c(c5)C(=O)N(C5CCC(=O)NC5=O)C6=O)CC4)CC3)CC2)ccc1Nc1ncc(Cl)c(Nc2ccccc2P(C)(C)=O)n1 (stereo not drawn)
2 = C[C@@H](Oc1cc(-c2cnn(C3CCN(CC4CN(c5ccc6c(c5)C(=O)N(C5CCC(=O)NC5=O)C6=O)C4)CC3)c2)cnc1N)c1c(Cl)ccc(F)c1Cl (stereo partly drawn)
3 = Cc1cc(Nc2ncc(Cl)c(Nc3ccccc3S(=O)(=O)C(C)C)n2)c(OC(C)C)cc1C1CCNCC1
Rank by IC50 (largest to smallest). Write the labels out in the order the request specifies.
2, 3, 1

a = COc1cc(N2CCC(N3CCN(CC4CCN(c5ccc(NC6CCC(=O)NC6=O)cc5)CC4)CC3)CC2)ccc1Nc1ncc(Cl)c(Nc2ccccc2P(C)(C)=O)n1 (stereo not drawn)
b = C[C@@H](Oc1cc(-c2cnn(C3CCN(CC4CN(c5cccc6c5C(=O)N(C5CCC(=O)NC5=O)C6=O)C4)CC3)c2)cnc1N)c1c(Cl)ccc(F)c1Cl (stereo partly drawn)
Returns the identifier with the smallest measured IC50 among a and b . Please respond with the label that marks your chosen entry.
a

---

Test system: ROS1
Method Description: ROS1 degradation in Ba/F3 cells (WES immunoblotting)
Assay type: cell-based
Run Conditions: concentration needed to reduce ROS1 protein by 50%, Ba/F3 cells
Outcome Measure: DC50 (nM)

| Molecule | DC50 [nM] |
| --- | --- |
| Cc1cc(Nc2ncc(Cl)c(Nc3ccccc3S(=O)(=O)C(C)C)n2)c(OC(C)C)cc1C1CCN(C2CCN(CC3CN(c4ccc5c(c4)C(=O)N(C4CCC(=O)NC4=O)C5=O)C3)CC2)CC1 (centres unmarked) [8n] | 586 |
| Cc1cc(Nc2ncc(Cl)c(Nc3ccccc3S(=O)(=O)C(C)C)n2)c(OC(C)C)cc1C1CCN(CCNc2ccc3c(c2)C(=O)N(C2CCC(=O)NC2=O)C3=O)CC1 (centres unmarked) [8h] | 145 |
| Cc1cc(Nc2ncc(Cl)c(Nc3ccccc3S(=O)(=O)C(C)C)n2)c(OC(C)C)cc1C1CCN(C2CCN(C3CN(c4ccc5c(c4)C(=O)N(C4CCC(=O)NC4=O)C5=O)C3)CC2)CC1 (centres unmarked) [8m] | 35 |
| C[C@@H](Oc1cc(-c2cnn(C3CCN(CCC4CCN(c5cccc6c5C(=O)N(C5CCC(=O)NC5=O)C6=O)CC4)CC3)c2)cnc1N)c1c(Cl)ccc(F)c1Cl (some centres unmarked) [7d] | 145 |
| C[C@@H](Oc1cc(-c2cnn(C3CCN(CC4CCN(CC5CCN(c6ccc7c(c6)C(=O)N(C6CCC(=O)NC6=O)C7=O)CC5)CC4)CC3)c2)cnc1N)c1c(Cl)ccc(F)c1Cl (some centres unmarked) [7i] | 338 |

a = COc1cc(N2CCC(N3CCN(CC4CCN(c5ccc(NC6CCC(=O)NC6=O)cc5)CC4)CC3)CC2)ccc1Nc1ncc(Cl)c(Nc2ccccc2P(C)(C)=O)n1 (centres unmarked) [9q]
b = COc1cc(N2CCC(N3CCN(C(=O)C4CCN(c5ccc(NC6CCC(=O)NC6=O)cc5)CC4)CC3)CC2)ccc1Nc1ncc(Cl)c(Nc2ccccc2P(C)(C)=O)n1 (centres unmarked) [9v]
c = COc1cc(N2CCN(CC3CN(c4ccc5c(c4)CN(C4CCC(=O)NC4=O)C5=O)C3)CC2)ccc1Nc1ncc(Cl)c(Nc2ccccc2P(C)(C)=O)n1 (centres unmarked) [9m]
d = COc1cc(N2CCN(C3CCN(CC4CCN(c5ccc6c(c5)C(=O)N(C5CCC(=O)NC5=O)C6=O)CC4)CC3)CC2)ccc1Nc1ncc(Cl)c(Nc2ccccc2P(C)(C)=O)n1 (centres unmarked) [9h]
Rank by DC50 (largest to smallest). Write the labels out in the order the request specifies.
a, b, d, c
(a: 145 nM, b: 76 nM, d: 34 nM, c: 9 nM)

Cited source: paper PMC11513893
